Reported Functional assay IL-8 values for a set of binders
- Assayed target: T1, CD134 expressed on the cell surface of HT1080_OX40 cells (human, UniProt P43489 29-277); further: test concentration or dose not given here
- T1 sequence (looked up): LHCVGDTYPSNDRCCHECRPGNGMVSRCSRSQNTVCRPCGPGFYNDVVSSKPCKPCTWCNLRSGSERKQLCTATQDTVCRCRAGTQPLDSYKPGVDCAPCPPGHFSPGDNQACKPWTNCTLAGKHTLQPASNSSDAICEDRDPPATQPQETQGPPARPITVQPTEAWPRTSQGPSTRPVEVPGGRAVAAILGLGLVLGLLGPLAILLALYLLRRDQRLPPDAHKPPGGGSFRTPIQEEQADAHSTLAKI
- Method notes: cell-based or functional assay
Give a bare numeral; the unit abs. corr. is implied.

Guide cases for Functional assay IL-8, answers given:
• P018.S.12.A.H05 (antibody, V domains shown, V regions on human Ig constant parts; also called AB134_91) VH: QSLEESGGDLVKPGASLTLTCTASGFSFDIDYYMCWVRQAPGKGLEWIACIYAGSSGSTYYASWAKGRFTISKTSSTTVTLQMPSLTAADTATYFCARHYAGYAGDAYATDYYFNLWGRGTLVTVSS VL: DIVMTQTPSSVSATVGDTVTINCQASQSVSNFLAWYQQKPGQPPKPLIYGASNLESGVPSRFRGSGSGTEFTLTISGMKAEDAATYYCQSGYYSATFGAGTKVEIK = 0.348
• P018.S.12.A.F02 (antibody, V domains shown, V regions on human Ig constant parts; also called AB134_78) VH: QSLEESGGRLVTPGTPLTLTCTASGFSLIKSHINWVRQAPGKGLEWVGGIAYDDNTYYANWAKGRFTISKTSTTVDLRITSPTTADTATYFCAREDSSGWGSFNLWGQGTLVTVSS VL: AQVLTQTPSSVSAAVGGTVTISCQSSQSVYATNQLSWFQQKSGQPPKRLIYSASTLASGVSSRFKGSGSGTQFTLTISGVQSDDAATYYCQGAYDCSGGDCRAFGGGTEVVVK = 0.185

Shifting focus to the binder that follows.
Reported Functional assay IL-8 for P018.S.12.A.A05 (antibody, V domains shown, V regions on human Ig constant parts; also called AB134_54) VH: QSLEESGGRLVTPGTPLTLTCTASGFSLSNYYINWVRQAPGKGLEWIGIIDKSGSAYYASWARGRFTISKTSTTVGLKIPSPTTEDTATYFCARGYGGYADHGLGLWGQGTLVTVSS VL: DVVMTQTPASVSEPVGGTVTIKCQASQSIAGWLAWYQQKPGQPPKLLIYQASKLASGVPSRFSGSGSGTEYTLTISDLESDDAATYYCQCTYGSASGSNGFGGGTEVVVK was 0.267
